B1: library; numbered along this chain (parent)
chain: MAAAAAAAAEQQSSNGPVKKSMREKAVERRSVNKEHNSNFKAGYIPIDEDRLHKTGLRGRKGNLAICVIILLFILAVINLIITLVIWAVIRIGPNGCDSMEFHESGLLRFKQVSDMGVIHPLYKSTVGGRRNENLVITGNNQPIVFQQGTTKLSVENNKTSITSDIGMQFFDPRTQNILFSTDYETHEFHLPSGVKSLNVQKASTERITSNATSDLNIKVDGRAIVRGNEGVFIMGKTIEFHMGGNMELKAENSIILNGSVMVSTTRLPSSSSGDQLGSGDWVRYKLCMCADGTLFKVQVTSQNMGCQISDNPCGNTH

- Variants of: B1
- test.summary: SGCB cell-surface expression functional score (HA stain, bin4 vs bin1, normalised to synonymous) (log10 ratio); higher = more cell-surface SGCB (functional)
measured.property: SGCB cell-surface expression functional score (log10)
Number only, no unit.

- Q308A: -0.46
- T55D: 0.39
- P143S: -0.44
- Q112T: -0.79
- G59L: 0.09
- K34F: -0.14
- M262D: -0.81
- K196M: 0.21

Lookup result for `F296H` ; measured SGCB cell-surface expression functional score (log10): -0.39

Lookup result for `Q276A` ; measured SGCB cell-surface expression functional score (log10): -0.49

Lookup result for `F296K` ; measured SGCB cell-surface expression functional score (log10): -1.28
